- Study target: T1, CD32B (FcγRII-B) (UniProt P31994 43-217, limits assumed)
- T1 construct: No species or construct stated
- T1 sequence (looked up): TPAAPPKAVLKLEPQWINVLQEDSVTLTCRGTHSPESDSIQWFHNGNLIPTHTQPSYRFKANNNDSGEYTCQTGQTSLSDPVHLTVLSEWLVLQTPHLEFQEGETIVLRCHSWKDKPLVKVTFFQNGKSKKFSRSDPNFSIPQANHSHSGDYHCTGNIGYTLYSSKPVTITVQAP
- Experiment: Table 3; relative to wild-type Fc; method not stated
Result type: binding relative to wild-type Fc (fold)

INSERT INTO results (binder, result_type, readout_value) VALUES
  ('Fc variant F243L D270E P396L Q419H (other, UniProt P01857-1 99-330, looked up, name in EU numbering, domain: Fc region; positions are EU index) EPKSCDKTHTCPPCPAPELLGGPSVFLLPPKPKDTLMISRTPEVTCVVVDVSHEEPEVKFNWYVDGVEVHNAKTKPREEQYNSTYRVVSVLTVLHQDWLNGKEYKCKVSNKALPAPIEKTISKAKGQPREPQVYTLPPSRDELTKNQVSLTCLVKGFYPSDIAVEWESNGQPENNYKTTPLVLDSDGSFFLYSKLTVDKSRWQHGNVFSCSVMHEALHNHYTQKSLSLSPGK', 'binding relative to wild-type Fc (fold)', 0.26),
  ('Fc variant F243L P247L N421K (other, UniProt P01857-1 99-330, looked up, name in EU numbering, domain: Fc region; positions are EU index) EPKSCDKTHTCPPCPAPELLGGPSVFLLPPKLKDTLMISRTPEVTCVVVDVSHEDPEVKFNWYVDGVEVHNAKTKPREEQYNSTYRVVSVLTVLHQDWLNGKEYKCKVSNKALPAPIEKTISKAKGQPREPQVYTLPPSRDELTKNQVSLTCLVKGFYPSDIAVEWESNGQPENNYKTTPPVLDSDGSFFLYSKLTVDKSRWQQGKVFSCSVMHEALHNHYTQKSLSLSPGK', 'binding relative to wild-type Fc (fold)', 0.17),
  ('Fc variant D270E P396L Q419H (other, UniProt P01857-1 99-330, looked up, name in EU numbering, domain: Fc region; positions are EU index) EPKSCDKTHTCPPCPAPELLGGPSVFLFPPKPKDTLMISRTPEVTCVVVDVSHEEPEVKFNWYVDGVEVHNAKTKPREEQYNSTYRVVSVLTVLHQDWLNGKEYKCKVSNKALPAPIEKTISKAKGQPREPQVYTLPPSRDELTKNQVSLTCLVKGFYPSDIAVEWESNGQPENNYKTTPLVLDSDGSFFLYSKLTVDKSRWQHGNVFSCSVMHEALHNHYTQKSLSLSPGK', 'binding relative to wild-type Fc (fold)', 0.68);
